Provenance of the data: the supplement of paper PMC9170038

# reported apparent KD of MS2 coat protein; entries follow
Test system: MS2 coat protein
Assay: apparent KD of MS2 coat protein, switch ON state; designed switch direction (-1 OFF switch, 1 ON switch): 1; higher = weaker reporter binding
Conditions: FMN input: 0 or 200 uM; Eterna round: R93 (includes R88 designs)
reportedEndpoint: apparent KD of MS2 coat protein (nM)

- sequenceText: "AACAAUCUAUCUGAGGAUAUAUGUCGAAAGACAUGAGGAUCACCCAUGUAAAAACAUGAAAAGACAUAGAAGGCAGAUAGAUUGA [SS2: 1132]"
  systemTested: "MS2 coat protein"
  quantitativeResult: 18.6
- sequenceText: "AAUAUACAUGAGGAUCACCCAUGUUUUGGUGGGUCAGGAUAUAAAAACAAUUACAUAAAGUUAGAAGGGACAAAUA [JR_SS001_Sub004]"
  systemTested: "MS2 coat protein"
  quantitativeResult: 111
- sequenceText: "UACACGCUGGCGCAGGAUAUGUCGCUGGUGACAUGAGGAUCACCCAUGUAUACCAUUGCGGUUAAGCAGAAGGGUGAGAAGCGUG [Bidibeso]"
  systemTested: "MS2 coat protein"
  quantitativeResult: 23.5

###

Test system: MS2 coat protein
Test: apparent KD of MS2 coat protein; designed switch direction (-1 OFF switch, 1 ON switch): -1; higher = weaker reporter binding
Settings: input ligand: none
reportedEndpoint: apparent KD of MS2 coat protein (nM)

- sequenceText: "ACAUGAGGAUCACCCAUGUUGUACUGGAUAGGGUGGUCCAGGUAGGAUAUGCAAACGCGUUGCGAGCAGAAGGACCACAGCCAG [Ceed] (Eterna round: R96, puzzle: Exclusion NG 3)"
  quantitativeResult: 35.3
- sequenceText: "GGGCUCGGUGUGAGGAUAUGCUCGGGUAAACUCGGGCAGAAGGCACAUGAGGAUCACCCAUGUAAGUCGGGCUC [-28.5, -27.4 kcal, A 23%, 4bis-4] (Eterna round: R97, puzzle: Brourd's mod of Exclusion 4)"
  quantitativeResult: 18
- sequenceText: "GAAAAUUGAGGAUAUCCAAAAGGCCACAUGAGGAUCACCCAUGUGUAUCCUCGGCCCAAAGGAGAAGGCAAGAUAA [EX5 A.23] (Eterna round: R97, puzzle: Exclusion 5)"
  quantitativeResult: 5080
- sequenceText: "UCGCUCCGUGUAGGAUAUCGCCGUACUAUUCGGCGAGAAGGACAUGAGGAUCACCCAUGUAUGUUAUUAUCACGCGUGGCGCAA [Design 59] (Eterna round: R96, puzzle: Exclusion NG 1)"
  quantitativeResult: 16.9
- sequenceText: "GCGAUUUCCGAGGAUAUCCUGCACACUAUCUAAGGAGAAGGCGGAACUUGAGGAUCACCCAAGUGCAUCCGAAU [Isusbe] (Eterna round: R97, puzzle: Exclusion 6)"
  quantitativeResult: 39.5
- sequenceText: "GUGCCGCGAGGAUAUACAGACGGGUCCAUAACGUGUCUCGGACUUGAGGAUCACCCAAGUAGAAGGCGUUUCAG [salish99_ex2_r4_623] (Eterna round: R97, puzzle: Exclusion 2)"
  quantitativeResult: 20.8
- sequenceText: "CCUUCCCGAGGAUAUACAUGAGGAUCACCCAUGUGAUCCUAAGGCUGAUCAAGCCUAUGUAGAAGGCGCAAAUC [salish99_ex3_r4_006] (Eterna round: R97, puzzle: Exclusion 3)"
  quantitativeResult: 38.4
- sequenceText: "GUUUUCAGACGGAGAUCCUACAUGAGGAUCACCCAUGUCUCACAAGCUAAUUGCUCGUCUUAUUCUCCUCUGUUCUC [Elimod 40 - Jieux - Sensor, turn-off variant 1] (Eterna round: R97, puzzle: Sensor, turn-off variant 1)"
  quantitativeResult: 24.3
- sequenceText: "ACACACAGAGGAUAUCUUCCGCAUGACAUGAGGAUCACCCAUGUGUGCAUGCCCAAAAGUAGAGAAGGCUGUGUGU [eternacac ex5r4 #3] (Eterna round: R97, puzzle: Exclusion 5)"
  quantitativeResult: 35.6
- sequenceText: "CUAGCGAUUGUAGGAUAUCGGACUGUUUCAGUCUGAGAAGGACAUGAGGAUCACCCAUGUGAAGCUACGUGAGUAGCACGCUAG [JL ENG1 3.84] (Eterna round: R96, puzzle: Exclusion NG 1)"
  quantitativeResult: 24.5
